- test_system: β-catenin/Tcf4 PPI (Homo sapiens)
- Sequence (P35222 138-686): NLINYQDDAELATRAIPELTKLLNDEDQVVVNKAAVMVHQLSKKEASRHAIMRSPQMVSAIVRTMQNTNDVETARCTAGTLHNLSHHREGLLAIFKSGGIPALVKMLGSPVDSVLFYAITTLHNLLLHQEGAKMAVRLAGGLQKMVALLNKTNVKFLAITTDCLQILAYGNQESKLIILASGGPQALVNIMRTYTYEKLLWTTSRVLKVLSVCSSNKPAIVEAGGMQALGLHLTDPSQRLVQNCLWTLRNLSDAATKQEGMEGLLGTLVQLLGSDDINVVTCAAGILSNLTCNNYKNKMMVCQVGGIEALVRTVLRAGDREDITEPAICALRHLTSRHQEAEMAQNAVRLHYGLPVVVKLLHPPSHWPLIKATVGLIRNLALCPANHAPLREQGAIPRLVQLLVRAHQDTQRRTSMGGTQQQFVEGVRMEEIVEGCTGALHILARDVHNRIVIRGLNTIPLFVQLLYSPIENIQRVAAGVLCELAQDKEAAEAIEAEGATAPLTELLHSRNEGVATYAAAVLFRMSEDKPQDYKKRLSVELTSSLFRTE
- details: read-out: Ki ± SD FP; Table 8, resynthesized 18 and derivatives
measure_name: pKi
Numbers only, as −log10 of the molar value.

molecule_smiles	quantitative_readout
N#CCCCn1c2ccccc2c2nc3nonc3nc21	3.80

I'm hoping you can list pKi for every molecule here, please.
1. N#CCn1c2ccccc2c2nc3nonc3nc21
2. c1ccc2c(c1)[nH]c1nc3nonc3nc12

3.62
3.55
